Reference for the values: patent US20230263822A1

Give Neutrophil for every item shown.
Settings: mouse, in vivo, sc, 50 mg/kg
Numbers only, in cells/μL.

INSERT INTO results (substance, recordedendpoint, u, assayresult) VALUES
  ('ISIS 416853: MOE gapmer, nucleobases 1275 to 1318 of SEQ ID NO: 1 (Table 8) (antisense TTGGTGCACAGTTTCTGGCA; MOE gapmer, wing and gap sizes not given here)', 'Neutrophil', 'cells/μL', 2040);

Field: next substance
Neutrophil lookup needed for ISIS 416863: MOE gapmer, nucleobases 1275 to 1318 of SEQ ID NO: 1 (Table 8) (antisense CAGCGGACGGCATTGGTGCA; MOE gapmer, wing and gap sizes not given here) , thanks.
1330

---

System: blood coagulation
Assay: PT and aPTT assay in cynomolgus monkeys (Example 45)
Assay type: in vivo
Details: day 29; escalating dose regimen; platelet poor plasma
Procedure: Groups, each consisting of two male and three female monkeys, were injected subcutaneously with ISIS 416838, ISIS 416850, ISIS 416858, ISIS 416864, or ISIS 417002 in escalating doses. […] Body weights were measured weekly. […] Blood samples were collected in tubes containing sodium citrate. PT and aPTT were determined in duplicate with an ACL 9000 coagulation instrument (Instrumentation Laboratory, Italy). […]
Assign aPTT ratio (INR) to each entry below.
One number for each entry.

INSERT INTO assay_data (substance, assayresult) VALUES
  ('ISIS 416850: MOE gapmer, nucleobases 1275 to 1318 of SEQ ID NO: 1 (Table 8) (antisense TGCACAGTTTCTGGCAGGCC; MOE gapmer, wing and gap sizes not given here)', 1.13);

Recorded aPTT ratio (INR) for ISIS 417002: MOE gapmer, nucleobases 1275 to 1318 of SEQ ID NO: 1 (Table 8) (antisense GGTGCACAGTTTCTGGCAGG; MOE gapmer, wing and gap sizes not given here) , please?
1.11

---

Kindly state % inhibition for each of the entries shown.
Test system: human Factor 11 mRNA
Assay: Antisense inhibition of human Factor 11 in HepG2 cells by microwalk gapmers, lipofectin, 75 nM (Example 3)
Format: cell-based
Details: HepG2 cells, lipofectin, gapmers targeted to nucleobases 1062 to 1091 of SEQ ID NO: 1
Strand notation (5' to 3'): a small letter for the sugar, then the base; units joined by * are phosphorothioate-linked, units joined directly phosphodiester-linked; [ ] holds rarer units or linkages, { } end groups; capitals alone tell only the bases. e = 2'-O-(2-methoxyethyl) (MOE); [5mC] = 5-methylcytosine; d = 2'-deoxy (DNA)
Numbers only, in %.

INSERT INTO assay_data (substance, u, assayresult) VALUES
  ('416841 (antisense eG*eA*eG*eA*eT*dT*d[5mC]*dT*dT*dT*dG*dG*dG*d[5mC]*d[5mC]*eA*eT*eT*e[5mC]*e[5mC]) [compound 416841]', '%', 87),
  ('416914 (antisense eT*eT*eG*dA*dG*dA*dT*dT*d[5mC]*dT*dT*dT*dG*dG*dG*d[5mC]*d[5mC]*eA*eT*eT) [compound 416914]', '%', 87);

Please find the next substance below.
% inhibition for 416910 (antisense eG*eA*eT*dT*d[5mC]*dT*dT*dT*dG*dG*dG*d[5mC]*d[5mC]*dA*dT*dT*d[5mC]*e[5mC]*eT*eG) [compound 416910] ?
90

---

Test system: fibrinogen
Assay: Fibrinogen assay (Example 45)
Assay type: in vivo, cynomolgus monkeys
Details: plasma; day 43; escalating dose regimen
Please respond with reported fibrinogen levels for every item in the list.
Hey, just the number and the unit after it is fine.

Below, each entry is followed by its recorded fibrinogen levels result.
INSERT INTO assay_data (substance, recordedendpoint, assayresult) VALUES
  ('ISIS 416858: MOE gapmer, nucleobases 1275 to 1318 of SEQ ID NO: 1 (Table 8) (antisense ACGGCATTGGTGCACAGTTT; MOE gapmer, wing and gap sizes not given here)', 'fibrinogen levels', '229 mg/dL'),
  ('ISIS 416864: MOE gapmer, nucleobases 1275 to 1318 of SEQ ID NO: 1 (Table 8) (antisense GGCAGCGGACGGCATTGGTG; MOE gapmer, wing and gap sizes not given here)', 'fibrinogen levels', '198 mg/dL');

Form field: fibrinogen levels recorded for ISIS 417002: MOE gapmer, nucleobases 1275 to 1318 of SEQ ID NO: 1 (Table 8) (antisense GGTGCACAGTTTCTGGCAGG; MOE gapmer, wing and gap sizes not given here) with fibrinogen (enter value)
187 mg/dL

---

Conditions: mouse, in vivo, sc, 50 mg/kg
e = 2'-O-(2-methoxyethyl) (MOE); d = 2'-deoxy (DNA)
recordedEndpoint: ALT
Report field: quantity (unit follows the number).

INSERT INTO results (substance, assayresult) VALUES
  ('ISIS 445505: 5-8-5 or 6-8-6 MOE microwalk gapmer (Table 44) (antisense CGGCATTGGTGCACAGTTTC; sugars from the 5'' end e6 d8 e6, backbone and methylation of C not given here)', '116 IU/L');

# context switch: different substance, same ALT
Look up ALT for this substance: ISIS 445498: 5-8-5 or 6-8-6 MOE microwalk gapmer (Table 44) (antisense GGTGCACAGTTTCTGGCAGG; sugars from the 5' end e6 d8 e6, backbone and methylation of C not given here)
66 IU/L

---

Provide the recorded BUN for the entries that follow.
Test: Tolerability in CD1 mice: kidney function, BUN, creatinine (Example 33)
Settings: plasma, 50 mg/kg s.c. twice a week, 2 weeks
One number for each entry, in mg/dL.

Consider the reported BUN for these substances:
INSERT INTO assay_data (substance, recordedendpoint, assayresult) VALUES
  ('ISIS 416838: MOE gapmer, nucleobases 1018 to 1042 of SEQ ID NO: 1 (Table 6) (antisense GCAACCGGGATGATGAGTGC; MOE gapmer, wing and gap sizes not given here)', 'BUN', 25),
  ('ISIS 417002: MOE gapmer, nucleobases 1275 to 1318 of SEQ ID NO: 1 (Table 8) (antisense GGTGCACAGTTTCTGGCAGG; MOE gapmer, wing and gap sizes not given here)', 'BUN', 19);

Batch request: BUN per item, same order as input.
1. ISIS 416858: MOE gapmer, nucleobases 1275 to 1318 of SEQ ID NO: 1 (Table 8) (antisense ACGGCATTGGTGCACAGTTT; MOE gapmer, wing and gap sizes not given here)
2. ISIS 416864: MOE gapmer, nucleobases 1275 to 1318 of SEQ ID NO: 1 (Table 8) (antisense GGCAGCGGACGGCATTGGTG; MOE gapmer, wing and gap sizes not given here)
3. ISIS 416850: MOE gapmer, nucleobases 1275 to 1318 of SEQ ID NO: 1 (Table 8) (antisense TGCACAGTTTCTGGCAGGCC; MOE gapmer, wing and gap sizes not given here)

[21, 22, 25]

---

Kindly state percent inhibition of Factor 11 at 2.2 μM for each of the entries shown.
Test system: human Factor 11 mRNA
Test: Dose-dependent inhibition of human Factor 11 in HepG2 cells, electroporation 0.7-20 uM (Example 4)
Assay type: cell-based
Settings: 2.2 μM, relative to untreated control cells
Strand notation (5' to 3'): a small letter for the sugar, then the base; units joined by * are phosphorothioate-linked, units joined directly phosphodiester-linked; [ ] holds rarer units or linkages, { } end groups; capitals alone tell only the bases. e = 2'-O-(2-methoxyethyl) (MOE); [5mC] = 5-methylcytosine; d = 2'-deoxy (DNA)
Numbers only, in %.

INSERT INTO results (substance, assayresult) VALUES
  ('417000 (antisense eT*eG*d[5mC]*dA*d[5mC]*dA*dG*dT*dT*dT*d[5mC]*dT*dG*dG*d[5mC]*eA*eG*eG*e[5mC]*e[5mC]) [compound 417000]', 73),
  ('416926 (antisense eT*eG*eG*dT*dG*d[5mC]*dA*d[5mC]*dA*dG*dT*dT*dT*d[5mC]*dT*dG*dG*e[5mC]*eA*eG) [compound 416926]', 71);

Let us move to another entry and its percent inhibition of Factor 11 at 2.2 μM.
Give human Factor 11 mRNA percent inhibition of Factor 11 at 2.2 μM for 416972 (antisense eT*eA*dT*dG*d[5mC]*d[5mC]*d[5mC]*dT*dT*d[5mC]*dA*dT*dG*dT*d[5mC]*eT*eA*eG*eG*eT) [compound 416972]
30

---

Assignment: determine reported monocytes for the given substances.
Assay: Hematology assays in cynomolgus monkeys (Example 45)
Assay type: in vivo
Conditions: day 64
One number for each entry, in %.

Answered examples (2):
INSERT INTO results (substance, recordedendpoint, u, assayresult) VALUES
  ('ISIS 416838: MOE gapmer, nucleobases 1018 to 1042 of SEQ ID NO: 1 (Table 6) (antisense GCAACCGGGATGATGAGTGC; MOE gapmer, wing and gap sizes not given here)', 'monocytes', '%', 3.5),
  ('ISIS 417002: MOE gapmer, nucleobases 1275 to 1318 of SEQ ID NO: 1 (Table 8) (antisense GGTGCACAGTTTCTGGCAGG; MOE gapmer, wing and gap sizes not given here)', 'monocytes', '%', 4.0);

I'm hoping you can list monocytes for every substance here, please.
1. ISIS 416864: MOE gapmer, nucleobases 1275 to 1318 of SEQ ID NO: 1 (Table 8) (antisense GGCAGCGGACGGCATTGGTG; MOE gapmer, wing and gap sizes not given here)
2. ISIS 416858: MOE gapmer, nucleobases 1275 to 1318 of SEQ ID NO: 1 (Table 8) (antisense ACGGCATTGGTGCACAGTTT; MOE gapmer, wing and gap sizes not given here)

1: 2.8; 2: 4.4
